Assay System: DsOBP69a (Drosophila suzukii, UniProt A0AB39ZGK5)
Sequence (A0AB39ZGK5 25-148): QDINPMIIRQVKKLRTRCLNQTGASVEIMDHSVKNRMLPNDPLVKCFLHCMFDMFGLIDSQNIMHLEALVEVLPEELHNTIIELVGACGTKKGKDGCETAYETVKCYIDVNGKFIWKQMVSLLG
Procedure Text: Fluorescence competition binding assay with bis-ANS, recombinant DsOBP69a
Threshold 20 µM. Kd below it: Y. Kd at it or above: N.

Consider the worked cases shown below.
CCCCCC/C=C\CCCCCCCCCCCCCCC [(Z)-7-Tricosene]: Y
COc1ccc2cc3[n+](cc2c1OC)CCc1cc2c(cc1-3)OCO2 [Berberine chloride]: Y
CC(=O)/C=C/C1=C(C)CCCC1(C)C: Y

# evaluate next
Answer whether the molecule O=C1C[C@@H](c2ccc(O)cc2)Oc2cc(O)cc(O)c21 has Kd strictly less than 20 µM
N

====

Assay System: DsOBP76a (Drosophila suzukii, UniProt A0AB39ZCT4)
Sequence (A0AB39ZCT4 30-153): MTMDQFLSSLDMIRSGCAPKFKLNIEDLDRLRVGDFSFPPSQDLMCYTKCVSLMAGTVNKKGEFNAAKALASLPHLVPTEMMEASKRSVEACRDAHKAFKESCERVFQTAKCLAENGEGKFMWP
Procedure Text: Fluorescence competition binding assay with bis-ANS, recombinant DsOBP76a
Quantity: Kd (µM)
Give just the number in µM; leave the unit off.

For orientation, consider the following solved cases.
O=c1ccc2ccccc2o1 [Coumarin]: 7.76
CC(=O)/C=C/C1=C(C)CCCC1(C)C [β-Ionone]: 3.37
COc1ccc2cc3[n+](cc2c1OC)CCc1cc2c(cc1-3)OCO2 [Berberine chloride]: 7.64

Now look at this one.
So what Kd did O=C1C[C@@H](c2ccc(O)cc2)Oc2cc(O)cc(O)c21 [Naringenin] get with DsOBP76a (Drosophila suzukii, UniProt A0AB39ZCT4)?
24.1
